Biological target: IDO2 (Homo sapiens (Human), UniProt Q6ZQW0)
Sequence (Q6ZQW0 whole entry, species assumed): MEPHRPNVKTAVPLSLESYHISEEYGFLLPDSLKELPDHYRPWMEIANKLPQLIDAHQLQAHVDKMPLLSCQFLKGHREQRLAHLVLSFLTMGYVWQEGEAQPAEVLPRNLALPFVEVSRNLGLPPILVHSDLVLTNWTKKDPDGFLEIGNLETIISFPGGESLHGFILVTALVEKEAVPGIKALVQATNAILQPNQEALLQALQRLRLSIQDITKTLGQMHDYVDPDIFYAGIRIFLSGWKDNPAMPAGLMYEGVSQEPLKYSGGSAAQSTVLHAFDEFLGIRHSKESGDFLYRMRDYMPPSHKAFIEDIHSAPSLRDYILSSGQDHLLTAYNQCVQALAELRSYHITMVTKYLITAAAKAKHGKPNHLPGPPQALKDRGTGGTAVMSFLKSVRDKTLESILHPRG
Assay: Cellular IDO2 assay, doxycycline and 5-methoxy-L-tryptophan medium, colorimetric
Type: cell-based
Settings: cellular level, 72 h incubation, signal at 480 nm
Counter-ions that a name gives are not always drawn.
Below, each entry is listed alongside its reported IC50.
Metric Name: IC50

Cc1ccc2nc3n(c(=O)c2c1)-c1ccc([N+](=O)[O-])cc1C3=O	< 50 nM
CS(=O)(=O)c1ccc2c(c1)/C(=N\O)c1nc3cc(F)ccc3c(=O)n1-2	50 to 500 nM
NCc1ccc2nc3n(c(=O)c2c1)-c1ccc(F)cc1C3=O [Compound 144, hydrochloride Salt]	< 50 nM
O=C1c2cc(F)ccc2-n2c1nc1ccc(CBr)cc1c2=O	< 50 nM
CC1(CCC(=O)Nc2ccc3c(c2)C(=O)c2nc4cc(Cl)ccc4c(=O)n2-3)N=N1	50 to 500 nM
CS(=O)(=O)c1ccc2c(c1)C(=O)c1nc3cc(Cl)cc(Cl)c3c(=O)n1-2	< 50 nM
CS(=O)(=O)Nc1ccc2c(c1)C(=O)c1nc3cc(Cl)cc(Cl)c3c(=O)n1-2	50 to 500 nM
O=C1c2cc([N+](=O)[O-])ccc2-n2c1nc1ccc(F)cc1c2=O	< 50 nM
N#Cc1ccc2c(c1)Cc1nc3cc(F)ccc3c(=O)n1-2	< 50 nM
NC(=O)c1ccc2c(c1)C(=O)c1nc3cc(Cl)cc(Cl)c3c(=O)n1-2	50 to 500 nM

---

Target: Indoleamine 2,3-dioxygenase 1 (IDO1) (Homo sapiens (Human), UniProt P14902)
Sequence (P14902 whole entry): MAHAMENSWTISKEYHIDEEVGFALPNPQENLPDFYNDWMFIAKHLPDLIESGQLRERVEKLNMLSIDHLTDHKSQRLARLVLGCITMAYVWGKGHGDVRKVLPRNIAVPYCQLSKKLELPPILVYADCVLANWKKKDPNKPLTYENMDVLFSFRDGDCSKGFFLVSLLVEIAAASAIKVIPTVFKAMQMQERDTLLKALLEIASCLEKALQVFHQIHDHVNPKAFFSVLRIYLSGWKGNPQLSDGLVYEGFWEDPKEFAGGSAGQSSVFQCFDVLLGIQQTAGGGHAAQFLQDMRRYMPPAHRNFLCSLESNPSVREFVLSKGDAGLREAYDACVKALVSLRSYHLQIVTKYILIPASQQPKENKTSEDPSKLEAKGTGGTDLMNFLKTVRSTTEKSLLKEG
Experiment: Cellular IDO1 assay: kynurenine production in IFN-γ-stimulated HeLa cells, colorimetric
# IC50 values compiled below
Metric Name: IC50

O=c1c2c(Cl)cccc2[nH]c2cc3cc([N+](=O)[O-])ccc3n12	50 to 500 nM
O=c1c2c(F)cc(F)cc2nc2n1-c1ccc([N+](=O)[O-])cc1C2	> 500 nM
CS(=O)(=O)c1ccc2c(c1)C(=O)c1nc3cc(F)ccc3c(=O)n1-2	50 to 500 nM
NC(=O)c1ccc2c(c1)C(=O)c1nc3cc(Cl)cc(Cl)c3c(=O)n1-2	50 to 500 nM
CN1CCN(Cc2ccc3c(=O)n4c(nc3c2)C(=O)c2cc(F)ccc2-4)CC1	50 to 500 nM
O=C1c2cc(F)ccc2-n2c1nc1c(Br)cccc1c2=O	50 to 500 nM
Cc1c(F)ccc2c(=O)n3c(nc12)C(=O)c1cc([N+](=O)[O-])ccc1-3	50 to 500 nM
O=C1c2cc(Br)ccc2-n2c1nc1cc(F)ccc1c2=O	> 500 nM
Cc1cc(F)cc2c(=O)n3c(nc12)C(=O)c1cc([N+](=O)[O-])ccc1-3	50 to 500 nM
O=C1c2cc([N+](=O)[O-])ccc2-n2c1nc1c(Br)cc(F)cc1c2=O	50 to 500 nM
O=C1c2cc([N+](=O)[O-])ccc2-n2c1nc1c(Br)cccc1c2=O	50 to 500 nM
O=C1c2cc([N+](=O)[O-])ccc2-n2c1nc1cc(F)ccc1c2=O	< 50 nM

---

Reported values of IC50 for individual entries
Biological target: IDO2 (Homo sapiens (Human), UniProt Q6ZQW0)
Assay: Cellular IDO2 assay, doxycycline and 5-methoxy-L-tryptophan medium, colorimetric
Format: cell-based
Details: cellular level, 72 h incubation, signal at 480 nm
Metric Name: IC50

N#Cc1ccc2c(c1)C(O)C1Nc3cc(F)ccc3C(=O)N21 (centres unmarked)	< 50 nM
N#Cc1ccc2c(c1)C(=O)c1nc3c(Br)cccc3c(=O)n1-2	< 50 nM
COC(=O)c1ccc2c(c1)C(=O)c1nc3cc(Cl)ccc3c(=O)n1-2	50 to 500 nM
NCCNC(=O)c1ccc2c(c1)C(=O)c1nc3cc(Cl)ccc3c(=O)n1-2	50 to 500 nM
NCc1cccc2nc3n(c(=O)c12)-c1ccc(F)cc1C3=O [Compound 102]	< 50 nM
O=C1c2cc([N+](=O)[O-])ccc2-n2c1nc1c(Br)cccc1c2=O	< 50 nM
O=C1c2cc(F)ccc2-n2c1nc1cc(NCc3ccc(F)cc3)ccc1c2=O	< 50 nM
CON=C1c2cc(F)ccc2-n2c1nc1cc(CNC(=O)OCc3ccccc3)ccc1c2=O (stereo in doubt)	50 to 500 nM
NS(=O)(=O)c1ccc2c(c1)C(=O)c1nc3cc(Cl)ccc3c(=O)n1-2	50 to 500 nM
CON=C1c2cc(C#N)ccc2-n2c1nc1c(Nc3ccc(F)cc3)cccc1c2=O (stereo in doubt)	< 50 nM
O=C1c2cc(F)ccc2-n2c1nc1c(NCc3ccc(F)cc3)cccc1c2=O	50 to 500 nM
O=C1c2cc([N+](=O)[O-])ccc2-n2c1nc1cc(Cl)cc(Cl)c1c2=O	50 to 500 nM
O=c1c2c(Cl)cccc2[nH]c2cc3cc([N+](=O)[O-])ccc3n12	< 50 nM
O=C1c2cc([N+](=O)[O-])ccc2-n2c1nc1c(Br)cc(F)cc1c2=O	50 to 500 nM
N#Cc1ccc2c(c1)C(=O)c1nc3ccc(CN4CCOCC4)cc3c(=O)n1-2	< 50 nM
O=C1c2cc(F)ccc2-n2c1nc1cc(Nc3ccc(F)cc3)ccc1c2=O	< 50 nM
N#Cc1ccc2c(c1)C(=O)c1nc3cc(Cl)ccc3c(=O)n1-2	< 50 nM
O=C1c2cc([N+](=O)[O-])ccc2-n2c1nc1cnc(O)cc1c2=O	50 to 500 nM
O=C1c2cc(S(=O)(=O)Cc3ccccc3)ccc2-n2c1nc1cc(F)ccc1c2=O	< 50 nM
CNC(=O)c1ccc2c(c1)C(=O)c1nc3cc(Cl)cc(Cl)c3c(=O)n1-2	50 to 500 nM
O=c1c2cccc(Nc3ccc(F)cc3)c2nc2n1-c1ccc(F)cc1C2=NO (stereo in doubt)	50 to 500 nM
CC(C)(C)OC(=O)Nc1ccc2c(=O)n3c(nc2c1)C(=O)c1cc([N+](=O)[O-])ccc1-3	< 50 nM
Cc1ccc2c(=O)n3c(nc2c1)C(=O)c1cc([N+](=O)[O-])ccc1-3	50 to 500 nM
CON=C1c2cc(F)ccc2-n2c1nc1c(Nc3ccc(F)cc3)cccc1c2=O (stereo in doubt)	> 500 nM
O=C1c2cc(Br)ccc2-n2c1nc1cc(F)ccc1c2=O	50 to 500 nM
Nc1ccc2c(=O)n3c(nc2c1)C(=O)c1cc([N+](=O)[O-])ccc1-3	< 50 nM
CO/N=C1/c2cc(C#N)ccc2-n2c1nc1ccc(CN3CCOCC3)cc1c2=O	< 50 nM
CN(C)Cc1ccc2nc3n(c(=O)c2c1Cl)-c1ccc(Br)cc1C3=O	< 50 nM
CO/N=C1/c2cc(F)ccc2-n2c1nc1ccc(-c3c[nH]cn3)cc1c2=O	< 50 nM

Hey, just so you know, these numbers are from patent US20250171452A1.
